System: rat sciatic nerve
Assay type: in vivo, Female Charles River rats
Conditions: compound alone 0.5%, no vasoconstrictor
Quick reference for Frequency among some molecules

Some solved entries appear below for comparison.
Cc1cccc(C)c1NC(=O)CN(C)C [H, 2-Dimethylamino-2'-6'-acetoxylidide]    5/6
CCC(C)(C)NCC(=O)Nc1c(C)cccc1C [L, 2-tert. Amylamino-2',6'-acetoxylidide]    6/6
Cc1cccc(C)c1NC(=O)C(C)N (stereo not shown) [Q, 2-Amino-2',6'-propionoxylidide]    4/6

Turning now to a further record.
// query So what's the measured Frequency for this one? CCC(C)N(CC)CC(=O)Nc1c(C)cccc1C (stereo not shown)
// result 2/6

Cited source for all entries: patent US3957996A
